# target-under-test: T1, human Nectin-4 extracellular antigen hNectin-4-His (human, UniProt Q96NY8 32-349)
# T1 construct: C-terminal 8xHis tag included
# T1 sequence: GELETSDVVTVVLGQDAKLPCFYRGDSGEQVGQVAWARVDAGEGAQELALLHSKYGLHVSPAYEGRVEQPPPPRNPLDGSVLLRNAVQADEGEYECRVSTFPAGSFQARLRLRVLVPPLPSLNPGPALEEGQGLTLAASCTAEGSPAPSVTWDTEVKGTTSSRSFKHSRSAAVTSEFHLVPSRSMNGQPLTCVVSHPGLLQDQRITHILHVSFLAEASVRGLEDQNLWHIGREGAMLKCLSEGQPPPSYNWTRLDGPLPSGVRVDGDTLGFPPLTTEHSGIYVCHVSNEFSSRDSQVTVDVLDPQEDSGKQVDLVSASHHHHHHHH
# procedure-text: ELISA, phage scFv supernatant 1:50
quantity: OD value (OD)
One number for each entry, in OD.

binder	OD value, OD
1F3-2G9 scFv (scFv, V domains shown, phage clone supernatant) VH: EVQLVESGGGLVQPGGSLRLSCAASGFTFGGYGMSWVRQAPGKGLEWVSWISAWDGSIYYADSVKGRFTISRDNSKNTLYLQMNSLRAEDTAVYYCARAELLAFDVYTASDYWGQGTLVTVSS VL: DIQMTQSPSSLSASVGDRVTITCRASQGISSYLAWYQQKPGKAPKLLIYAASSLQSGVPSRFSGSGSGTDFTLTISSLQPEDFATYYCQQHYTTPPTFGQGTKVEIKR	1.38

# next binder below
Task: Name the recorded OD value for 1G8-2B6 scFv (scFv, V domains shown, phage clone supernatant) VH: EVQLVESGGGLVQPGGSLRLSCAASGGSFGGYAMSWVRQAPGKGLEWVSRIYAYKSENDYADSVKGRFTISRDNSKNTLYLQMNSLRAEDTAVYYCARQTEDRSYGYDLDYWGQGTLVTVSS VL: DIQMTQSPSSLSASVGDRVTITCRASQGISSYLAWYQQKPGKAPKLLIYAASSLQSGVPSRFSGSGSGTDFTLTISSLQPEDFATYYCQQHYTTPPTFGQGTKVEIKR .
Result: 1.56
